The measurements presented in this section are drawn from patent EP4603105A1.

Target: GDP-bound KRAS wild-type protein (Homo sapiens)
Sequence (P01116 1-188 isoform P01116-2): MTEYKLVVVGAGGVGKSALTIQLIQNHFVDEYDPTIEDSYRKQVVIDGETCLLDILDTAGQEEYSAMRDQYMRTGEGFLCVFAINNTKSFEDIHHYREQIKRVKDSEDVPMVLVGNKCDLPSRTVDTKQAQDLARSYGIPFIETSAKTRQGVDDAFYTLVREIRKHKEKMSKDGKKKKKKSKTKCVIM
Assay: Binding to KRAS by surface plasmon resonance (SPR), dissociation constant KD
Settings: 1:1 binding model
Description: Surface plasmon resonance was used to analyze the binding affinity of compounds for KRAS, NRAS, and HRAS. […] The resulting sensorgram was subjected to curve fitting based on a 1:1 binding model on Biacore Insight Evaluation Software or T200 Evaluation Software, and thereby the dissociation constant KD of each compound with respect to KRAS, NRAS, and HRAS was determined. […]
pKd: −log10 of the molar value.
Binary call on pKd: yes from 9 upward, no beneath that.

Worked examples, 3 molecules total:
smiles repr: C#CCN1CC(=O)N(C)[C@H]2C/C=C\CCN(C2=O)[C@@H](Cc2ccc(C)cc2)C(=O)N(C)CC(=O)N[C@@H](CCc2cc(F)c(C(F)(F)F)c(F)c2)C(=O)N2C[C@H](OCC)C[C@H]2C(=O)NC2(CC(C)(C)C2)C(=O)N(C)[C@@H](C2CCCC2)C(=O)N(C)[C@H](C(=O)N(C)C)CC(=O)N(C)[C@@H](CCC)C(=O)N[C@@H](CC(C)C)C1=O
group label: no

smiles repr: CCCOC[C@H]1C(=O)N[C@@H]([C@@H](C)CC)C(=O)N(C)CC(=O)N(C)[C@H]2C/C=C\CCN(C2=O)[C@@H](Cc2ccc(C)cc2)C(=O)N(C)CC(=O)N[C@@H](CCc2ccc(C(F)(F)F)c(OC)c2)C(=O)N2C[C@@H](C)C[C@H]2C(=O)NC2(CC(C)(C)C2)C(=O)N(C)[C@@H](C2CCCC2)C(=O)N(C)[C@H](C(=O)N(C)CC)CC(=O)N1C
group label: yes

smiles repr: CCOC[C@H]1C(=O)N[C@@H]([C@@H](C)CC)C(=O)N(C)CC(=O)N(C)[C@H]2C/C=C\CCN(C2=O)[C@@H](Cc2ccc(C)cc2)C(=O)N(C)CC(=O)N[C@@H](CCc2ccc(C(F)(F)F)c(OC)c2)C(=O)N2C[C@@H](C)C[C@H]2C(=O)NC2(CC(C)(C)C2)C(=O)N(C)[C@@H](C2CCCC2)C(=O)N(C)[C@H](C(=O)N(C)C)CC(=O)N1C
group label: yes

Now consider the entry below.
Determine whether measured pKd meets or exceeds 9 for "CCC[C@H]1C(=O)N[C@@H](C2CCOCC2)C(=O)N(C)CC(=O)N(C)[C@H]2C/C=C\CCN(C2=O)[C@@H](Cc2ccc(C)cc2)C(=O)N(C)CC(=O)N[C@@H](CCc2ccc(C(F)(F)F)c(Cl)c2)C(=O)N2C[C@H](OCC)C[C@H]2C(=O)NC2(CC(C)(C)C2)C(=O)N(C)[C@@H](C2CCCC2)C(=O)N(C)[C@H](C(=O)N(C)C)CC(=O)N1C"
no

----------
system: human lung cancer strain NCI-H441; assay type: cell-based
Where a SMILES comes first, the peptide text is derived from it. Bridges are numbered along the chain shown (N, C = ends). [ ]: non-standard residue; d: D form. The star is where a group is joined. hPhe(3-Cl-4-CF3) = N[C@@H](CCc1ccc(C(F)(F)F)c(Cl)c1)C(=O)O; NMeGly(cPent) = CN[C@H](C(=O)O)C1CCCC1; NMeF = CN[C@@H](Cc1ccccc1)C(=O)O; NMeD = CN[C@@H](CC(=O)O)C(=O)O; NMeL = CN[C@@H](CC(C)C)C(=O)O; Morpholide = C1CN(*)CCO1; Ac5c = NC1(C(=O)O)CCCC1; Sar = CNCC(=O)O
For each of the compounds below, state its log10 of IC50.
Scale: decimal log of IC50, IC50 in nM.

Consider the reported log10 of IC50 for these compounds:
compound: CCCO[C@@H]1C[C@H]2C(=O)NC3(CC(C)(C)C3)C(=O)N(C)[C@@H](C3CCCC3)C(=O)N(C)[C@H](C(=O)N3CCCC3)CC(=O)N(C)[C@H]3CCCCc4ccc(cc4)C[C@@H](C(=O)N(C)CC(=O)N[C@@H](CCc4ccc(C(F)(F)F)c(OC)c4)C(=O)N2C1)N1CC/C=C\C[C@@H](C1=O)N(C)C(=O)CN(C)C(=O)[C@H]([C@@H](C)CC)NC3=O
log10 of IC50: 0.34
//
compound: CCC(CC)[C@H]1C(=O)N(C)[C@H](C(=O)N(C)C)CC(=O)N(C)[C@@H](COC)C(=O)N[C@@H]([C@@H](C)CC)C(=O)N(C)CC(=O)N(C)[C@H]2C/C=C\CCN(C2=O)[C@@H](Cc2ccc(C)cc2)C(=O)N(C)CC(=O)N[C@@H](CCc2ccc(C(F)(F)F)c(Cl)c2)C(=O)N2CCCCC[C@H]2C(=O)NC2(CC(C)(C)C2)C(=O)N1C
log10 of IC50: 1.47
//
compound: CC[C@H](C)[C@@H]1NC(=O)[C@H](CC(C)C)N(C)C(=O)C[C@@H](C(=O)N2CCOCC2)N(C)C(=O)[C@H](C2CCCC2)N(C)C(=O)C2(CCCC2)NC(=O)[C@@H]2CCCN2C(=O)[C@H](CCc2ccc(C(F)(F)F)c(Cl)c2)NC(=O)CN(C)C(=O)[C@H](Cc2ccccc2)N(C)C(=O)CN(C)C(=O)CN(C)C1=O [PP0039] ([NMeL]I[Sar][Sar][NMeF][Sar][hPhe(3-Cl-4-CF3)]P[Ac5c][NMeGly(cPent)][NMeD]-Morpholide; lactam N-11)
log10 of IC50: 1.30
//
compound: CCC[C@H]1C(=O)N[C@@H]([C@@H](C)CC)C(=O)N(C2CC2)CC(=O)N(C)[C@H]2C/C=C\CCN(C2=O)[C@@H](Cc2ccc(C(F)(F)F)cc2)C(=O)N(C)CC(=O)N[C@@H](CCc2ccc(Cl)c(Cl)c2)C(=O)N2C[C@H](OCC)C[C@H]2C(=O)NC2(CC(C)(C)C2)C(=O)N(C)[C@@H](CC2CC2)C(=O)N(C)[C@H](C(=O)N(C)C)CC(=O)N1C
log10 of IC50: 1.74

Pending compound:
// sample "CC[C@H](C)[C@@H]1NC(=O)[C@H](CC(C)C)N(C)C(=O)C[C@@H](C(=O)N2CCOCC2)N(CC)C(=O)[C@H](C2CCCC2)N(C)C(=O)C2(CCCC2)NC(=O)[C@@H]2CCCN2C(=O)[C@H](CCc2cc(F)c(C(F)(F)F)c(F)c2)NC(=O)CN(C)C(=O)[C@H](Cc2ccc(C(F)(F)F)cc2)N2CCCC[C@@H](C2=O)N(C)C(=O)CN(C)C1=O" , its log10 of IC50 was 0.80
